# Tested on: Serum
# Procedure text: Metabolic stability in human serum assessed as compound degradation rate at 1 mM by MALDI-TOF mass spectrometry assay
# Assay type: ADME, cell-free
# Experimental context: 1000 µM
Non-standard residues stand in square brackets, D forms with d. Residues, ends and D or L forms follow the SMILES beside them. *: point of attachment. X1 = [N-]=[N+]=N[C@@H](CCCNC(=N)N)C(=O)*; Tle = CC(C)(C)[C@H](N)C(=O)O
Property label: Activity (µmol/min)

Task item: Fill in: Activity of CC[C@@H](C)[C@H](NC(=O)[C@H](Cc1ccc(O)cc1)NC(=O)[C@@H]1CCCN1C(=O)[C@H](CCCNC(=N)N)NC(=O)[C@H](CCCNC(=N)N)NC)C(=O)N[C@@H](CC(C)C)C(=O)O is ___
Reply: 0.593

1: CC[C@H](C)[C@H](NC(=O)[C@H](Cc1ccc(O)cc1)NC(=O)[C@@H]1CCCN1C(=O)[C@H](CCCNC(=N)N)NC(=O)[C@H](CCCNC(=N)N)NC(C)=O)C(=O)N[C@@H](CC(C)C)C(=O)O
2: CC(C)C[C@H](NC(=O)[C@@H](NC(=O)[C@H](Cc1c[nH]c2ccccc12)NC(=O)[C@@H]1CCCN1C(=O)[C@H](CCCCN)NC(=O)[C@H](CCCNC(=N)N)N=[N+]=[N-])C(C)(C)C)C(=O)O (X1-KPW[Tle]L-OH)
Task item: Exercise: compare 1 and 2 ; which one has the greater Activity? State the label of the item chosen.
Reply: 1

Data provenance: ChEMBL document CHEMBL1153387
